Values from ChEMBL document CHEMBL1127878

Would you mind telling me the reported Duration of each entry?
Tested on: Rattus norvegicus
Experiment: Tested for total duration time(BP) after peroral administration of 30 mg/kg of dose in spontaneously hypertensive rat
Assay type: functional
Details: route oral
One number for each entry, in h.

Compound	Duration [h]
CCOC(=O)/C=C1\C2C3C=CC(CCC3)C2C(=O)N1Cc1ccc(-c2ccccc2-c2nn[nH]n2)cc1 (centres undefined)	24
CCCCC1(CC)CC(=O)N(Cc2ccc(-c3ccccc3-c3nn[nH]n3)cc2)/C(=C/C(=O)OCC)C1 (centres undefined)	8
CCCCc1nc(Cl)c(CO)n1Cc1ccc(-c2ccccc2-c2nnn[nH]2)cc1 [LOSARTAN]	24
CCOC(=O)/C=C1\CC2(CCCCC2)CC(=O)N1Cc1ccc(-c2ccccc2-c2nn[nH]n2)cc1	8
CCCCC1(C)CC(=O)N(Cc2ccc(-c3ccccc3-c3nn[nH]n3)cc2)/C(=C/C(=O)OCC)C1 (centres undefined)	24

I need Duration for every entry listed below, if you could help.
1. CCCC1(CC)CC(=O)N(Cc2ccc(-c3ccccc3-c3nn[nH]n3)cc2)/C(=C/C(=O)OCC)C1 (centres undefined)
2. CCOC(=O)/C=C1\CC2(CCCCCC2)C(=O)N1Cc1ccc(-c2ccccc2-c2nn[nH]n2)cc1
3. CCOC(=O)/C=C1\C2C3C=CC(CC3)C2C(=O)N1Cc1ccc(-c2ccccc2-c2nn[nH]n2)cc1 (stereo in doubt; 7)
4. CCOC(=O)/C=C1\CC(C)(C(C)C)CC(=O)N1Cc1ccc(-c2ccccc2-c2nn[nH]n2)cc1 (centres undefined)

Result:
6
16
13
5
